target: 5-hydroxytryptamine receptor 2B (Homo sapiens, UniProt P41595); experiment: Displacement of [3H]-LSD from recombinant human 5HT2B receptor stably expressed in HEK cells measured after 90 mins by microbeta scintillation counting method
Sequence (P41595 whole entry): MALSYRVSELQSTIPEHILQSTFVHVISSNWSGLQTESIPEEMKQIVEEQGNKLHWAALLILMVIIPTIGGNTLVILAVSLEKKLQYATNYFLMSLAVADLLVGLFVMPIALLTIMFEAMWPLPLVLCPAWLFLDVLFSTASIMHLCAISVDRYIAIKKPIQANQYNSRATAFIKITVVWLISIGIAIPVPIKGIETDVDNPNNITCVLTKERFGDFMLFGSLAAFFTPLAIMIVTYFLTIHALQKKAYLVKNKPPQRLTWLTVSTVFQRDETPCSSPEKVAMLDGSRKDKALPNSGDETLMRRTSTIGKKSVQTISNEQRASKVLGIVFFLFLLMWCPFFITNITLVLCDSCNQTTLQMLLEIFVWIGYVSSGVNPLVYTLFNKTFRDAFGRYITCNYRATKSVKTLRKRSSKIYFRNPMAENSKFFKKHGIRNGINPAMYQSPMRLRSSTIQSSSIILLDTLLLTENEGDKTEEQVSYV
readout.name: Ki (µM)

• Cc1ncc2nccn2c1-c1ccc(Oc2nccc3occc23)cc1C(F)(F)F = 6.7
• FC(F)(F)c1cc(Oc2nccc3ccsc23)ccc1-c1cccc2nccn12 = 1.1
• FC(F)(F)c1cc(Oc2nccc3occc23)ccc1-c1cccc2nccn12 = 0.83
• Cc1cc(Oc2nccc3occc23)ccc1-c1c(C)ncc2nccn12 = 4.1

###

target: 5-hydroxytryptamine receptor 5A (Homo sapiens); experiment: Displacement of [3H]-LSD from recombinant human 5HT5A receptor stably expressed in Flp-In CHO cells measured after 90 mins by microbeta scintillation counting method
Sequence (P47898 whole entry): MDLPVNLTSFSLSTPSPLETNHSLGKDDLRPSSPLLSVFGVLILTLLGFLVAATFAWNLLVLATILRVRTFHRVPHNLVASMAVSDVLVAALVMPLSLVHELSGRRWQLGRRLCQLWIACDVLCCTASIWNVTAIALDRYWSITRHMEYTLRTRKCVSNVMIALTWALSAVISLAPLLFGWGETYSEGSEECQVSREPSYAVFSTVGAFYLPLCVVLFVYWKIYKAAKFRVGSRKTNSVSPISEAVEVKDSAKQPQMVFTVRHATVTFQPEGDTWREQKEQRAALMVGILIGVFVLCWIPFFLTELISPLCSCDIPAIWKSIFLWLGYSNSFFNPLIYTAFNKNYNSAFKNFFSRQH
pKi: −log10 of the molar value.
readout.name: pKi

* FC(F)(F)c1cc(Oc2nccc3ccsc23)ccc1-c1cccc2nccn12 | 5.21
* FC(F)(F)c1cc(Oc2nccc3occc23)ccc1-c1cccc2nccn12 | 5.13
* Cc1ncc2nccn2c1-c1ccc(Oc2nccc3occc23)cc1C(F)(F)F | 5.02
